Data provenance is patent US11389466B2.

This listing pairs compounds with measured −ΔH.
biological target: AFL lectin (Aspergillus fumigatus); experiment: biochemical; assay type: binding; conditions: Table 1, first AFL batch
Sequence (Q4WW81 whole entry): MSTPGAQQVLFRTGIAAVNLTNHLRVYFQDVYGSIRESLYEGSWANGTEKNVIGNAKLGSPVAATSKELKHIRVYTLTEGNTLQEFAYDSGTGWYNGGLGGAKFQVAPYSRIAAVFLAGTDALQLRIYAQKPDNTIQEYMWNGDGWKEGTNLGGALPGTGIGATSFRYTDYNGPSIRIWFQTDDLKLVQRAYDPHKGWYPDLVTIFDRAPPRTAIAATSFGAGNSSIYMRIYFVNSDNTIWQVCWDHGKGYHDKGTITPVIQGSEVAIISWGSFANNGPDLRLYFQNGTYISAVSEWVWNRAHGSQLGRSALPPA
Quantity measured: −ΔH (kcal/mol)

compound="CC1OC(OCCOCCOCc2cn(CC3OC4OC5C(Cn6cc(COCCOCCOC7OC(C)C(O)C(O)C7O)nn6)OC(OC6C(Cn7cc(COCCOCCOC8OC(C)C(O)C(O)C8O)nn7)OC(OC7C(Cn8cc(COCCOCCOC9OC(C)C(O)C(O)C9O)nn8)OC(OC8C(Cn9cc(COCCOCCOC%10OC(C)C(O)C(O)C%10O)nn9)OC(OC9C(Cn%10cc(COCCOCCOC%11OC(C)C(O)C(O)C%11O)nn%10)OC(OC3C(O)C4O)C(O)C9O)C(O)C8O)C(O)C7O)C(O)C6O)C(O)C5O)nn2)C(O)C(O)C1O (stereo not drawn) [Compound 29]" observed=38.5
compound="CC1OC(OCCOCCOCCOCCOCc2cn(CC3OC4OC5C(Cn6cc(COCCOCCOCCOCCOC7OC(C)C(O)C(O)C7O)nn6)OC(OC6C(Cn7cc(COCCOCCOCCOCCOC8OC(C)C(O)C(O)C8O)nn7)OC(OC7C(Cn8cc(COCCOCCOCCOCCOC9OC(C)C(O)C(O)C9O)nn8)OC(OC8C(Cn9cc(COCCOCCOCCOCCOC%10OC(C)C(O)C(O)C%10O)nn9)OC(OC9C(Cn%10cc(COCCOCCOCCOCCOC%11OC(C)C(O)C(O)C%11O)nn%10)OC(OC3C(O)C4O)C(O)C9O)C(O)C8O)C(O)C7O)C(O)C6O)C(O)C5O)nn2)C(O)C(O)C1O (stereo not drawn) [Compound 30]" observed=52.6
compound="C[C@@H]1O[C@@H](OCc2cn(CCOCCOCCOCCOCCOCCOCCOCCOCCOCCOCCOCCn3cc(CO[C@@H]4O[C@@H](C)[C@@H](O)[C@@H](O)[C@@H]4O)nn3)nn2)[C@@H](O)[C@H](O)[C@@H]1O [Compound 26]" observed=17.7
